Sequence of the target: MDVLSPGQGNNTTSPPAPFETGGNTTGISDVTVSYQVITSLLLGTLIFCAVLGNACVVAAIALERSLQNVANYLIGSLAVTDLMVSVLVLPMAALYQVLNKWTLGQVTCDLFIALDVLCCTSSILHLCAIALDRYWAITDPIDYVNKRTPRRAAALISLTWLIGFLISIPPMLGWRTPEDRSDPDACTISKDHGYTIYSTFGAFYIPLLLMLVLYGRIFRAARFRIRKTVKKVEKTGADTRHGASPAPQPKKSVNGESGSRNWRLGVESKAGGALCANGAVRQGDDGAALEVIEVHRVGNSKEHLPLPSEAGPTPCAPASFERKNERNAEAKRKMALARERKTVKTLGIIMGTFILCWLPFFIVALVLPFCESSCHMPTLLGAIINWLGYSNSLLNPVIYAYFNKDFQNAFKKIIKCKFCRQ
endpoint_label: Ki (nM)

- substance_smiles: "Cc1ccc2c(N3CCN(Cc4ccc5c(c4)NC(=O)CO5)CC3)cccc2n1"
  unit_string: "nM"
  reported_value: 631

(a) Cc1ccc2c(OCC3CCN(CC(=O)c4ccc5c(c4)NC(=O)CO5)CC3)cccc2n1
(b) Cc1ccc2c(OCCCN3CC(Oc4ccc5c(c4)NC(=O)CO5)C3)cccc2n1
Please tell me which of the two, a or b , has the higher reported Ki value. Refer to your chosen entry by its label in the reply.
a
(a: 501 nM, b: 158 nM)

====

# study_system: 5-hydroxytryptamine receptor 1A (Homo sapiens)
# Sequence (whole entry): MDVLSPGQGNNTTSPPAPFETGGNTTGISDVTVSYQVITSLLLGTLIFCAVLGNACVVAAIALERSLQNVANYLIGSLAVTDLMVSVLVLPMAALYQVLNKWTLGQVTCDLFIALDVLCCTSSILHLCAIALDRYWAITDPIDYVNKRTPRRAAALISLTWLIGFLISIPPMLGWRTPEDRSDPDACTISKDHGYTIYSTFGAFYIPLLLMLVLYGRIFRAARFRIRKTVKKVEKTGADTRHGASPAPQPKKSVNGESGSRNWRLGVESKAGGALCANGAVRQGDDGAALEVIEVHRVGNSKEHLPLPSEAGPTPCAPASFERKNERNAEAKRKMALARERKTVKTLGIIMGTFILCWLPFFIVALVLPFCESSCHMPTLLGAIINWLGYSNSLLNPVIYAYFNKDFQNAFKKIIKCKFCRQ
# assay_explanation: Intrinsic activity at human cloned 5HT1A receptor expressed in CHO cells
# Assay type: cell-based
endpoint_label: Intrinsic activity

(P) Cc1ccc2c(OCCN3CC(COc4ccc5c(c4)NC(=O)CO5)C3)cccc2n1
(Q) Cc1ccc2c(N3CCN(CCCc4ccc5c(c4)NC(=O)CO5)CC3)cccc2n1
// max by Intrinsic activity over [ P , Q ] Please respond with the label that marks your chosen entry.
P
(P: 0.3, Q: 0)

(A) Cc1ccc2c(N3CCN(CCc4ccc5c(c4)NC(=O)CO5)CC3)cccc2n1
(B) Cc1ccc2c(OCCN3CCC(Cc4ccc5c(c4)NC(=O)CO5)CC3)cccc2n1
Between A and B , which one has the lower reported Intrinsic activity value? State the label of the item chosen.
B

====

# study_system: Sodium-dependent serotonin transporter (Rattus norvegicus, UniProt P31652)
# Sequence (P31652 whole entry): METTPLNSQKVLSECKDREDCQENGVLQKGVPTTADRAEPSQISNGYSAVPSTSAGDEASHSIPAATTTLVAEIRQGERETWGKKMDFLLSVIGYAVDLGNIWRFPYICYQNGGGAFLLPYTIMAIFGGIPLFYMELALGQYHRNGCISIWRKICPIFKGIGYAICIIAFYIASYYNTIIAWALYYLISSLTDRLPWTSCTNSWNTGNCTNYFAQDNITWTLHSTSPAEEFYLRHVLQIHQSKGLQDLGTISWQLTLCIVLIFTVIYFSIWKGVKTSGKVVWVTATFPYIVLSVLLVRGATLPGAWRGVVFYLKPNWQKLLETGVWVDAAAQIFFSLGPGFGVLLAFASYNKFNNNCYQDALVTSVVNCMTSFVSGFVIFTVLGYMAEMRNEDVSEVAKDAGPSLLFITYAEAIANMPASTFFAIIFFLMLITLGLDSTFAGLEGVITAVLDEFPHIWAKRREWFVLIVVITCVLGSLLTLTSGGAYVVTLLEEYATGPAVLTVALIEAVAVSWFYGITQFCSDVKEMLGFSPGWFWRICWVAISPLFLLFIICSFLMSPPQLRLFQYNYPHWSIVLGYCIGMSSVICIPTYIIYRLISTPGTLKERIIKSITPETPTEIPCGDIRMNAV
# assay_explanation: Inhibition of [3H]5HT reuptake at SERT in rat cortical synaptosomes
endpoint_label: Ki (µM)

(1) Cc1ccc2c(N3CCN(Cc4ccc5c(c4)NC(=O)CO5)CC3)cccc2n1
(2) Cc1ccc2c(OCCN3CC(COc4ccc5c(c4)NC(=O)CO5)C3)cccc2n1
(3) Cc1ccc2c(OC(C)CN3CCC(Cc4ccc5c(c4)NC(=O)CO5)CC3)cccc2n1 (racemic)
(4) Cc1ccc2c(OC3CCN(CCc4ccc5c(c4)NC(=O)CO5)CC3)cccc2n1
Order by Ki, smallest first, the items presented above. // list labels; follow requested order
2, 4, 3, 1

(I) Cc1ccc2c(OC3CCN(Cc4ccc5c(c4)NC(=O)CO5)CC3)cccc2n1
(II) Cc1ccc2c(OCC3CCN(CC(=O)c4ccc5c(c4)NC(=O)CO5)CC3)cccc2n1
Look at I and II . Which one has the lower recorded Ki number? Reply with the label of the item you choose.
I
